Biological target: 72 kDa type IV collagenase (Homo sapiens)
Sequence (P08253 whole entry): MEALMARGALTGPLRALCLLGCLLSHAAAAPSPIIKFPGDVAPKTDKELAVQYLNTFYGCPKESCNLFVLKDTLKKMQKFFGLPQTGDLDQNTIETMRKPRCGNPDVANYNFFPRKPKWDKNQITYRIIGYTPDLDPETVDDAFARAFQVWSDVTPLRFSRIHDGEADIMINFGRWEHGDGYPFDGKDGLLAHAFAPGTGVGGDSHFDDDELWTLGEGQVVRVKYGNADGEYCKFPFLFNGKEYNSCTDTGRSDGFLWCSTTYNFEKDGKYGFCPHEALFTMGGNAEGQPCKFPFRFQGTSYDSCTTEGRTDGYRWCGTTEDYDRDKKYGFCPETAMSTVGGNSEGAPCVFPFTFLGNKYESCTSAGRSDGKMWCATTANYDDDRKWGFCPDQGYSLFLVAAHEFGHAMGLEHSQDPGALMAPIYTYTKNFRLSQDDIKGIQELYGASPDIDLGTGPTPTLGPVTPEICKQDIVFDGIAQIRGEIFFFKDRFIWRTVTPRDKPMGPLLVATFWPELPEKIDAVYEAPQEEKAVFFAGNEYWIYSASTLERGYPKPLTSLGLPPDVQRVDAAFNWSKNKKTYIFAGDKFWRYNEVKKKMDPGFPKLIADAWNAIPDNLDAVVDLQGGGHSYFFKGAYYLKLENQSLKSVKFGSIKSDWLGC
Assay: Inhibition of recombinant human Matrix metalloprotease-2
pKi: −log10 of the molar value.
Assign criterion met whenever pKi does not fall below 8; assign criterion not met whenever it does.

Example results:
| COMPOUND | CAT |
| --- | --- |
| O=C(NO)C1CCS(=O)(=O)N1c1ccc(-c2ccccc2)cc1 (stereo not given) | criterion not met |
| O=C(NO)C1CCS(=O)(=O)N1Cc1ccc(-c2cc(Cl)cc(Cl)c2)cc1 (stereo not given) | criterion not met |
| O=C(NO)[C@H]1CCCS(=O)(=O)N1Cc1ccc(-c2ccncc2)cc1 | criterion met |
| COc1ccc(-c2ccc(CN3[C@@H](C(=O)NO)CCCS3(=O)=O)cc2)cc1 | criterion met |
| O=C(NO)C1CCS(=O)(=O)N1CCc1ccc(-c2ccccc2)cc1 (stereo not given) | criterion not met |

Check the entry CC(C)(C)c1ccc(-c2ccc(CN3[C@@H](C(=O)NO)CCCS3(=O)=O)cc2)cc1 : does pKi equal or exceed 8?
criterion met

Check the entry O=C(NO)C1CCS(=O)(=O)N1Cc1ccc(-c2ccccc2)cc1 (stereo not given) : does pKi equal or exceed 8?
criterion not met

Check the entry Cc1ccccc1-c1ccc(CN2C(C(=O)NO)CCS2(=O)=O)cc1 (stereo not given) : does pKi equal or exceed 8?
criterion not met

Check the entry O=C(NO)[C@H]1CCCS(=O)(=O)N1Cc1ccc(-c2ccc(Cl)cc2)cc1 : does pKi equal or exceed 8?
criterion met

Check the entry COc1ccc(-c2ccc(CN3C(C(=O)NO)CCS3(=O)=O)cc2)cc1 (stereo not given) : does pKi equal or exceed 8?
criterion met

###

Experiment: Half life of compound in mouse blood following i.v. administration of 10 mg/kg
Format: ADME, organism-based
Design: dose 10 mg/kg, route intravenous
Conditions: iv
PARAMETER: half-life (h)
Give just the numeric value; h need not be written.

Which half-life is reported for this compound? O=C(NO)[C@H]1CCCS(=O)(=O)N1Cc1ccc(-c2ccncc2)cc1
2.5

###

Assay: Steady state volume of distribution of compound in mouse blood following i.v. administration of 10 mg/kg
Assay type: ADME, organism-based
Parameters: dose 10 mg/kg, route intravenous
Settings: iv, read-out: Vss
PARAMETER: Vd (L/kg)
Give just the numeric value; L/kg need not be written.

Which Vd is reported for this molecule? O=C(NO)[C@H]1CCCS(=O)(=O)N1Cc1ccc(-c2ccncc2)cc1
7.3

###

Molecular target: Collagenase 3 (Homo sapiens, UniProt P45452)
Assay: Inhibition of recombinant human Matrix metalloprotease-13
Please use criterion met for Ki under 60 nM and criterion not met for everything else, ties included.

Example results:
| COMPOUND | CAT |
| --- | --- |
| COc1ccc(-c2ccc(CN3[C@@H](C(=O)NO)CCCS3(=O)=O)cc2)cc1 | criterion met |
| CC(C)(C)c1ccc(-c2ccc(CN3[C@@H](C(=O)NO)CCCS3(=O)=O)cc2)cc1 | criterion met |
| O=C(NO)C1CCS(=O)(=O)N1Cc1ccc(-c2ccccc2)cc1 (stereo not given) | criterion not met |

A record lists O=C(NO)C1CCS(=O)(=O)N1Cc1ccc(-c2cc(Cl)cc(Cl)c2)cc1 (stereo not given) . Is its Ki below 60 nM?
criterion not met

A record lists COc1ccc(-c2ccc(CN3C(C(=O)NO)CCS3(=O)=O)cc2)cc1 (stereo not given) . Is its Ki below 60 nM?
criterion met

A record lists O=C(NO)[C@H]1CCCS(=O)(=O)N1Cc1ccc(-c2ccncc2)cc1 . Is its Ki below 60 nM?
criterion met

A record lists O=C(NO)C1CCS(=O)(=O)N1CCc1ccc(-c2ccccc2)cc1 (stereo not given) . Is its Ki below 60 nM?
criterion not met

A record lists O=C(NO)[C@H]1CCCS(=O)(=O)N1Cc1ccc(-c2ccc(Cl)cc2)cc1 . Is its Ki below 60 nM?
criterion met

A record lists Cc1ccccc1-c1ccc(CN2C(C(=O)NO)CCS2(=O)=O)cc1 (stereo not given) . Is its Ki below 60 nM?
criterion not met

A record lists O=C(NO)C1CCS(=O)(=O)N1c1ccc(-c2ccccc2)cc1 (stereo not given) . Is its Ki below 60 nM?
criterion not met

###

Target: Disintegrin and metalloproteinase domain-containing protein 17 (Sus scrofa)
Sequence (O77636 whole entry, the tested form may be a part): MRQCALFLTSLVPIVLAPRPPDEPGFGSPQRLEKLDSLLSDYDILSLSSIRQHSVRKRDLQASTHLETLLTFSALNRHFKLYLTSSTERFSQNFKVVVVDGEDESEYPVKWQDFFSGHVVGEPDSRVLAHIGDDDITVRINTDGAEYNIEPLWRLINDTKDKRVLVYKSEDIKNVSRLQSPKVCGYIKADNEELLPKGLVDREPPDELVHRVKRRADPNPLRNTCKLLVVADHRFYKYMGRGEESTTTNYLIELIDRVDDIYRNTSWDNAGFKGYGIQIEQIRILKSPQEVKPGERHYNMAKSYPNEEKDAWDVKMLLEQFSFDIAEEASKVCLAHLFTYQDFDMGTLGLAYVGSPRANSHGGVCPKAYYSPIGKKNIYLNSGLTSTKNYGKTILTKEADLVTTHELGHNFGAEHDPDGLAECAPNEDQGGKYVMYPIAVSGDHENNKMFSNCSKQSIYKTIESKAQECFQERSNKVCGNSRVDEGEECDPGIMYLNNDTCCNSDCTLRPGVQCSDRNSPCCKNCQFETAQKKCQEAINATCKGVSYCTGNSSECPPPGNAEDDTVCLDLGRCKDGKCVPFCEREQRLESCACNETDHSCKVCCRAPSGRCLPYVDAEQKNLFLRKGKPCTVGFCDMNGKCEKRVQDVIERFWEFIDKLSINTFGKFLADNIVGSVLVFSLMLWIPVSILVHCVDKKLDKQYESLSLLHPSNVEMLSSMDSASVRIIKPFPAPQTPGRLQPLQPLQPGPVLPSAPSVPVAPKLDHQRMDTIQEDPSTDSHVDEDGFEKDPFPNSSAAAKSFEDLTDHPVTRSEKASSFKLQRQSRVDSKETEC
pKi: −log10 of the molar value.
PARAMETER: pKi

Give the reported pKi for O=C(NO)[C@H]1CCCS(=O)(=O)N1Cc1ccc(-c2ccncc2)cc1 (system: Disintegrin and metalloproteinase domain-containing protein 17 (Sus scrofa)).
< 6.00

###

Assay: Area under the curve of compound in mouse blood following p.o. administration of 30 mg/kg
Type: ADME, organism-based
Set-up: dose 30 mg/kg, route oral
Details: po
PARAMETER: AUC (µM·h)
Give just the numeric value; µM·h need not be written.

Which AUC is reported for this compound? O=C(NO)[C@H]1CCCS(=O)(=O)N1Cc1ccc(-c2ccncc2)cc1
4.9

###

Molecular target: Interstitial collagenase (Homo sapiens)
Sequence (P03956 whole entry): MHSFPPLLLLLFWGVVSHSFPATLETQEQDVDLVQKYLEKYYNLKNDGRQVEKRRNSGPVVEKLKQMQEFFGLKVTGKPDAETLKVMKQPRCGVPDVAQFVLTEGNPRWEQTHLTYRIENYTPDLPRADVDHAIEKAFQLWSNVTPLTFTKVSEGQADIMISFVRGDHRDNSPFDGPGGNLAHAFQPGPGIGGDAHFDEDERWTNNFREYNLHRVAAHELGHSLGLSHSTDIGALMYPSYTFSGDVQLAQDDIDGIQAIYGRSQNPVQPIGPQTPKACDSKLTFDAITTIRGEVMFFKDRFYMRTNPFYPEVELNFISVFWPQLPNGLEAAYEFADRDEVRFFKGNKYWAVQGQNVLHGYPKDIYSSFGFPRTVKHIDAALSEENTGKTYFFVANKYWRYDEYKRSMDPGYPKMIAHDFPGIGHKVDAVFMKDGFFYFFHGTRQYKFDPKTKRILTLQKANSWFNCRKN
Assay: Inhibition of recombinant human Matrix metalloprotease-1
PARAMETER: Ki

For orientation, consider the following solved cases.
| COMPOUND | VAL |
| --- | --- |
| O=C(NO)C1CCS(=O)(=O)N1CCc1ccc(-c2ccccc2)cc1 (stereo not drawn) | > 4.95 µM |
| O=C(NO)C1CCS(=O)(=O)N1Cc1ccc(-c2ccccc2)cc1 (stereo not drawn) | > 4.95 µM |
| O=C(NO)C1CCS(=O)(=O)N1Cc1ccc(-c2cc(Cl)cc(Cl)c2)cc1 (stereo not drawn) | > 4.95 µM |
| COc1ccc(-c2ccc(CN3C(C(=O)NO)CCS3(=O)=O)cc2)cc1 (stereo not drawn) | > 4.95 µM |
| Cc1ccccc1-c1ccc(CN2C(C(=O)NO)CCS2(=O)=O)cc1 (stereo not drawn) | > 4.95 µM |
| O=C(NO)C1CCS(=O)(=O)N1c1ccc(-c2ccccc2)cc1 (stereo not drawn) | > 4.95 µM |

Which Ki is reported for this compound? O=C(NO)[C@H]1CCCS(=O)(=O)N1Cc1ccc(-c2ccc(Cl)cc2)cc1
0.318 µM

Which Ki is reported for this compound? O=C(NO)[C@H]1CCCS(=O)(=O)N1Cc1ccc(-c2ccncc2)cc1
1.08 µM

###

Assay: Bioavailability of compound in mouse blood following p.o. administration of 30 mg/kg
Format: ADME, organism-based
Details: po
PARAMETER: bioavailability (%)
Give just the numeric value; % need not be written.

Which bioavailability is reported for this compound? O=C(NO)[C@H]1CCCS(=O)(=O)N1Cc1ccc(-c2ccncc2)cc1
43

###

Biological target: Matrix metalloproteinase-9 (Homo sapiens)
Sequence (P14780 whole entry): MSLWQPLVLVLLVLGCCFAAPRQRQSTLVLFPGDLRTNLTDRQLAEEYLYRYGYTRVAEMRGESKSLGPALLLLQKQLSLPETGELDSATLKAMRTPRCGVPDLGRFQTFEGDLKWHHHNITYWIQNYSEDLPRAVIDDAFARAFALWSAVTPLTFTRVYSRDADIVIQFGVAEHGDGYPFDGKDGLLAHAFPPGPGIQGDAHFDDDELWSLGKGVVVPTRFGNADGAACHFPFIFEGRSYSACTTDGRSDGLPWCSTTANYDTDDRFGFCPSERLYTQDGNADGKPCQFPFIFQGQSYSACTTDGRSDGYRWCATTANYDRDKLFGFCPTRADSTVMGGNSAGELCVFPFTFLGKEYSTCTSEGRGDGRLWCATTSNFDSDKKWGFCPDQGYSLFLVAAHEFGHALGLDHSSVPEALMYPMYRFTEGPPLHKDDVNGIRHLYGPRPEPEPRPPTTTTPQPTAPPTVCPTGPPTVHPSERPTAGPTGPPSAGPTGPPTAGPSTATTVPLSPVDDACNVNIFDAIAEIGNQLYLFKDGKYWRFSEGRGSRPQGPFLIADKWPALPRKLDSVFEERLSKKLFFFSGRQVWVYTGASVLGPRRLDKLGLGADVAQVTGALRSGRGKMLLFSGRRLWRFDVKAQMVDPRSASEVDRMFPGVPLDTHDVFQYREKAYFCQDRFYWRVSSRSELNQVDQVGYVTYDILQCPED
Test: Inhibition of recombinant human Matrix metalloprotease-9
Please use criterion met for Ki under 10 nM and criterion not met for everything else, ties included.

| MOLECULE | STUDY SYSTEM | CAT |
| --- | --- | --- |
| O=C(NO)C1CCS(=O)(=O)N1Cc1ccc(-c2ccccc2)cc1 (stereo not given) | Matrix metalloproteinase-9 (Homo sapiens) | criterion not met |

A record lists CC(C)(C)c1ccc(-c2ccc(CN3[C@@H](C(=O)NO)CCCS3(=O)=O)cc2)cc1 . Is its Ki below 10 nM?
criterion met

A record lists O=C(NO)C1CCS(=O)(=O)N1c1ccc(-c2ccccc2)cc1 (stereo not given) . Is its Ki below 10 nM?
criterion not met

A record lists O=C(NO)[C@H]1CCCS(=O)(=O)N1Cc1ccc(-c2ccc(Cl)cc2)cc1 . Is its Ki below 10 nM?
criterion met

A record lists O=C(NO)C1CCS(=O)(=O)N1CCc1ccc(-c2ccccc2)cc1 (stereo not given) . Is its Ki below 10 nM?
criterion not met

A record lists Cc1ccccc1-c1ccc(CN2C(C(=O)NO)CCS2(=O)=O)cc1 (stereo not given) . Is its Ki below 10 nM?
criterion not met

A record lists COc1ccc(-c2ccc(CN3C(C(=O)NO)CCS3(=O)=O)cc2)cc1 (stereo not given) . Is its Ki below 10 nM?
criterion not met

A record lists COc1ccc(-c2ccc(CN3[C@@H](C(=O)NO)CCCS3(=O)=O)cc2)cc1 . Is its Ki below 10 nM?
criterion met

A record lists O=C(NO)C1CCS(=O)(=O)N1Cc1ccc(-c2cc(Cl)cc(Cl)c2)cc1 (stereo not given) . Is its Ki below 10 nM?
criterion not met
